# reported viability at 48 h, 10 µM; entries follow
- Experiment Notes: in vitro
- Design: species or system HB2, CCD841
- Conditions: human, hek293 cells
Expressed in %, but write only the number.

>  <Molecule>
C=CC(=O)NC1(CO)Cc2ccccc2C1 [PCM-0102446]

>  <Measured Property>
viability at 48 h, 10 µM

>  <Value Measured>
88.4

$$$$
>  <Molecule>
C=CC(=O)NCC1CCOCO1 (stereo not shown) [PCM-0102648]

>  <Measured Property>
viability at 48 h, 10 µM

>  <Value Measured>
88.8

$$$$
>  <Molecule>
CC1CCCN(C(=O)C2CCN(C(=O)CCl)CC2)C1 (stereo not shown) [PCM-0102933]

>  <Measured Property>
viability at 48 h, 10 µM

>  <Value Measured>
57.9

$$$$
>  <Molecule>
C=CC(=O)Nc1ccc(N2CCOCC2)cc1 [PCM-0102551]

>  <Measured Property>
viability at 48 h, 10 µM

>  <Value Measured>
82.5

$$$$
>  <Molecule>
CC(=O)NNC(=O)CCl [PCM-0102310]

>  <Measured Property>
viability at 48 h, 10 µM

>  <Value Measured>
84.1

$$$$
>  <Molecule>
C=CC(=O)NNC(=O)c1ccccc1 [PCM-0102541]

>  <Measured Property>
viability at 48 h, 10 µM

>  <Value Measured>
106

$$$$

# molecule Cc1ccc(NC(=O)CCl)c(Cl)c1 [PCM-0102408] ; its viability at 48 h, 10 µM = 38.1

So for NC(=O)C1CCN(C(=O)CCl)CC1 [PCM-0102584] , the logged viability at 48 h, 10 µM turned out to be 89.8

Value of measured viability at 48 h, 10 µM for the entry CC1CC(=O)Nc2ccccc2N1C(=O)CCl (stereo not shown) [PCM-0102697] : 52.8

// C=CC(=O)Nc1ccc(C)cn1 [PCM-0102627] : viability at 48 h, 10 µM value = 78.8

====

- Experiment Notes: in vitro
- Design: species or system HB2, CCD841
- Conditions: human, hek293 cells
Measured Property: viability at 48 h, 10 µM (%)
Kindly answer with a numeric value in %, unit omitted.

Example cases with answers are listed next.
>  <Compound>
C=CC(=O)N1CCNC(=O)C1c1cccs1 (stereo not drawn)

>  <Unit Symbol>
%

>  <Value Measured>
81

$$$$
>  <Compound>
O=C(CCl)Nc1ccc2c(c1)OC1(CCCCC1)O2

>  <Unit Symbol>
%

>  <Value Measured>
1.4

$$$$

Short answer for COc1ccc(NC(=O)CCl)cc1 : viability at 48 h, 10 µM was 2.4

====

- System Under Test: NNMT (hNNMT) (Homo sapiens, UniProt P40261)
- Construct: wild type, N-terminal His6 tag kept (no cleavage described), E. coli, construct 31248 Da
- Sequence (P40261 1-264): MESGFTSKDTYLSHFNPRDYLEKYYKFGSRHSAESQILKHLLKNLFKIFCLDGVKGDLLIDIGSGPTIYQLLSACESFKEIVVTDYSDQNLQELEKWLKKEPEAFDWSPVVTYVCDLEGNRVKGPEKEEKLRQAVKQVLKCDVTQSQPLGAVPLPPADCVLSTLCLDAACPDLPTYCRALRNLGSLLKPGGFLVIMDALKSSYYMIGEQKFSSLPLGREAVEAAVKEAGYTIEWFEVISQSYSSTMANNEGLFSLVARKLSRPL
- Set-up: Intact protein LC/MS covalent labelling, fragments in pools of five, 200 uM each, 4 °C
- Conditions: 24 h, 4 °C, pool of five; 200 µM; covalent
Measured Property: NNMT
Just the number, please.

// recorded NNMT for O=C(CCl)Nc1cccnc1Cl : 0

Consider C=CC(=O)NCC1CCCc2sc(C)nc21 (stereo not drawn) . Its measured NNMT is 0

NNMT in this record for C=CC(=O)NCC1=CS(=O)(=O)c2ccccc21 : 0.07

Documented NNMT of Cc1nc(C2(NC(=O)CCl)CCCCCC2)no1 : 0

In plain terms, O=C(CCl)NC(=O)NCC1COc2ccccc2O1 (stereo not drawn) has a documented NNMT of 0

Lab note: CC(C)(C)n1ncc2c1CCCC2NC(=O)CCl.Cl (stereo not drawn) gave NNMT of 0

====

Readings of BSA for the listed compounds
- System Under Test: BSA (Bos taurus, UniProt P02769)
- Construct: gene ALB
- Sequence (P02769 whole entry): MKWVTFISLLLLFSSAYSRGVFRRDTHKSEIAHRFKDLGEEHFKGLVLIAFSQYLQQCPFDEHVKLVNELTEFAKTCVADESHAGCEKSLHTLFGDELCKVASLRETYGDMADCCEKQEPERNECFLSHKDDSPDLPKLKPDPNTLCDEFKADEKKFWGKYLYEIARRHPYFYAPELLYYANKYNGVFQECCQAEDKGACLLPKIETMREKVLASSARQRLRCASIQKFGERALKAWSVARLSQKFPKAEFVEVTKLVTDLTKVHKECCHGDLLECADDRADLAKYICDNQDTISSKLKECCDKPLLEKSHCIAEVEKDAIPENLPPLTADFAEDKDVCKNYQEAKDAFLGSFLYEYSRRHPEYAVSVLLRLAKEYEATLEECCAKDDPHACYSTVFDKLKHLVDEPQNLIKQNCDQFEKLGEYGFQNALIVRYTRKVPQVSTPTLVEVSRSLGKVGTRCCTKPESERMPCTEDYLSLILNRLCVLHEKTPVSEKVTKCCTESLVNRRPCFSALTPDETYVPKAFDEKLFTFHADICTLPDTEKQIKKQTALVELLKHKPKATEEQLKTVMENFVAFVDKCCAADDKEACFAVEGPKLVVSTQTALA
- Set-up: Intact protein LC/MS covalent labelling, fragments in pools of five, 200 uM each, 4 °C
- Conditions: 24 h, 4 °C, pool of five; 200 µM; covalent
// return a plain number; no unit text

BSA recorded for this compound, CC(C)N(C(=O)CCl)c1ccccc1 , is 0

Entry N#CSc1ccc(NC(=O)CCl)c(F)c1 — recorded BSA = 0

Record C=CC(=O)NCC1=CCCCC1 , field BSA: 0.1

Measured BSA of CCN(C(=O)CCl)C1CCS(=O)(=O)C1 (centres unmarked) : 0

# BSA (compound: COc1ccc(C(=O)NNC(=O)CCl)cc1 ) is 0

COc1cc2c(cc1OC)CN(C(=O)CCl)CC2 yielded BSA of 0

BSA measured on C=CC(=O)N1CCCC(c2ncc(C(F)(F)F)[nH]2)C1 (centres unmarked) = 0.09

# BSA of CC(C)(C)C1CCc2sc(C(=O)NNC(=O)CCl)cc2C1 (centres unmarked) = 0

====

- System Under Test: NUDT7 (Homo sapiens, UniProt P0C024)
- Construct: residues 14-235, E. coli, pNIC28-Bsa4, N-terminal His6 tag removed by TEV, construct 26672 Da
- Sequence (P0C024 14-235): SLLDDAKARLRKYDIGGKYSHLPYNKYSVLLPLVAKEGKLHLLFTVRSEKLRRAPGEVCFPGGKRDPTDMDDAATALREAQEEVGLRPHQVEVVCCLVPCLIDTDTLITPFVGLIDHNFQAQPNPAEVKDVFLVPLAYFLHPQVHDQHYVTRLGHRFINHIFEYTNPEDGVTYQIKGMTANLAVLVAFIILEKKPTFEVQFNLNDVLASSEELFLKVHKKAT
- Design: Intact protein LC/MS covalent labelling, fragments in pools of five, 200 uM each, 4 °C
- Conditions: 24 h, 4 °C, pool of five; 200 µM; covalent
Measured Property: NUDT7
Could you keep your reply to the number by itself?

Reference set (3 entries):
>  <Compound>
Cc1nc(-c2cccc(NC(=O)CCl)c2)cs1 [PCM-0102262]

>  <System Under Test>
NUDT7 (Homo sapiens, UniProt P0C024)

>  <Value Measured>
0

$$$$
>  <Compound>
CN(C(=O)CCl)c1nccs1 [PCM-0102975]

>  <System Under Test>
NUDT7 (Homo sapiens, UniProt P0C024)

>  <Value Measured>
0

$$$$
>  <Compound>
NC(=O)C1CCCN(C(=O)CCl)C1 (centres unmarked) [PCM-0102495]

>  <System Under Test>
NUDT7 (Homo sapiens, UniProt P0C024)

>  <Value Measured>
0

$$$$

For this compound ( O=C(CCl)NC1c2ccccc2-c2ccccc21 [PCM-0102802] ), measured NUDT7 is 0.19

Item: COCC(=O)NC(=O)CCl [PCM-0102904] | NUDT7: 0

Value of measured NUDT7 for the entry O=C(CCl)Nc1ccc(C(F)(F)F)cc1 [PCM-0102323] : 0.07

Input C=CC(=O)Nc1ccc([N+](=O)[O-])cc1 [PCM-0102740] . Output NUDT7: 0.05

For record Cc1n[nH]c(=O)c2c(NC(=O)CCl)oc(C)c12 [PCM-0102226] the listed NUDT7 is 0

NUDT7 in this record for C=CC(=O)NC(=O)NC12CC3CC(CC(C3)C1)C2 [PCM-0102106] : 0.79

Note to self: NUDT7 recorded for O=C(CCl)N1CCNC1=O [PCM-0102338] was 0

According to the records, this compound O=C(CCl)NC(=O)NC1CCS(=O)(=O)C1 (centres unmarked) [PCM-0102100] displays NUDT7 of 0

====

NUDT7 for assorted molecules
- System Under Test: NUDT7 (Homo sapiens, UniProt P0C024)
- Construct: residues 14-235, E. coli, pNIC28-Bsa4, N-terminal His6 tag removed by TEV, construct 26672 Da
- Set-up: Intact protein LC/MS covalent labelling, fragments in pools of five, 200 uM each, 4 °C
- Conditions: 24 h, 4 °C, pool of five; 200 µM; covalent
Could you keep your reply to the number by itself?

>  <Molecule>
C=CC(=O)N1CCCC2(CNC(=O)O2)C1 (centres unmarked)

>  <NUDT7>
0

$$$$
>  <Molecule>
CC(NC(=O)CCl)C12CC3CC(CC(C3)C1)C2 (centres unmarked)

>  <NUDT7>
0.07

$$$$
>  <Molecule>
COc1ccc(Cl)cc1NC(=O)CCl

>  <NUDT7>
0.23

$$$$
>  <Molecule>
O=C(CCl)Nc1ccccc1O

>  <NUDT7>
0.36

$$$$
>  <Molecule>
O=C(CCl)N1CCCCCC1

>  <NUDT7>
0

$$$$
>  <Molecule>
O=C(CCl)NNC(=O)C1CC1

>  <NUDT7>
0

$$$$
>  <Molecule>
C=CC(=O)N1CCc2c(ncn(CC)c2=O)C1

>  <NUDT7>
0

$$$$
>  <Molecule>
CCC1(C)NC(=O)N(NC(=O)CCl)C1=O (centres unmarked)

>  <NUDT7>
0

$$$$

Measured NUDT7 of Cc1ccc(C(C)NC(=O)CCl)cc1C (centres unmarked) : 0

Recorded result, O=C(CCl)N1N=C(c2ccco2)CC1c1ccco1 (centres unmarked) , NUDT7: 0.54

Documented NUDT7 of C=CC(=O)N1CCC(n2cc(C)cn2)CC1 : 0
